target: sRAGE binding to β-amyloid (Homo sapiens); construct: extracellular domain can be isolated by proteolysis of RAGE to generate soluble RAGE (sRAGE) comprised of the V and C domains; assay: RAGE binding assay (ELISA), β-amyloid as the RAGE ligand; settings: compounds tested in hydrochloride salt form, concentration at which 50% signal has been inhibited
Sequence (Q15109 23-342 limits assumed): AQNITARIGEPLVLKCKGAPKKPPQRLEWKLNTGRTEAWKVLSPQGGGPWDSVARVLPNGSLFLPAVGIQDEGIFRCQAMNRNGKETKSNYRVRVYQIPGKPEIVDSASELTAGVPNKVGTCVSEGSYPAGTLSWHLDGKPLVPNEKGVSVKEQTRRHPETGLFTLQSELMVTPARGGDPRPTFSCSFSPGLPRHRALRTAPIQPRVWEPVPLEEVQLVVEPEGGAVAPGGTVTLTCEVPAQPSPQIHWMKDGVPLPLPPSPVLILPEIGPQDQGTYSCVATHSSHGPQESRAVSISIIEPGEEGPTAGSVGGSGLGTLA
Where a name gives a salt, the structure may show the parent alone.
VALUE TYPE: IC50 (nM)

# MOLECULE, OBSERVED VALUE
rows = [
    ("CCCCc1nnc(OC2CN3CCC2CC3)cc1-c1ccc(OC2CCCCC2)cc1 (stereo not shown) [Example 26, dihydrochloride]", 1900),
    ("CCCCc1nnc(OC2CCN(CCC(=O)N(C)C)CC2)cc1-c1ccc(OC2CCCCC2)cc1 [Example 16, dihydrochloride]", 2070),
    ("CCCCc1nnc(OC2CCN(C)CC2)cc1-c1ccc(OCC2CCOCC2)cc1 [Example 54, dihydrochloride]", 5450),
    ("CCCCc1nnc(C(=O)N2CCC(O)C(CN(C)C)C2)cc1-c1ccc(OC2CCCCC2)cc1 (stereo not shown) [Example 106, dihydrochloride]", 1750),
]

---

biological target: sRAGE binding to S100b (Homo sapiens); construct: extracellular domain can be isolated by proteolysis of RAGE to generate soluble RAGE (sRAGE) comprised of the V and C domains; assay: RAGE binding assay (ELISA), S100b as the RAGE ligand; settings: compounds tested in hydrochloride salt form, concentration at which 50% signal has been inhibited
Sequence (Q15109 23-342 limits assumed): as above
Where a name gives a salt, the structure may show the parent alone.
VALUE TYPE: IC50 (nM)

# MOLECULE, SUBJECT OF TEST, VALUE TYPE, UNITS, OBSERVED VALUE
data = [
    ("CCCCc1nnc(OC[C@H]2CN(C)C[C@@H]2CO)cc1-c1ccc(OCc2ccccc2)cc1 (racemic) [Example 6, dihydrochloride]", "sRAGE binding to S100b (Homo sapiens)", "IC50", "nM", 2130),
    ("CCCCc1nnc(OCC2CCN(C)CC2)cc1-c1ccc(OCc2ccccc2)cc1", "sRAGE binding to S100b (Homo sapiens)", "IC50", "nM", 1320),
    ("CCCCc1nnc(OC2CCN(CC(C)(C)O)CC2)cc1-c1ccc(OC2CCCCC2)cc1 [Example 22, dihydrochloride]", "sRAGE binding to S100b (Homo sapiens)", "IC50", "nM", 1380),
    ("CCCCc1nnc(OC[C@H]2CCN(C)C[C@@H]2O)cc1-c1ccc(OC2CCCCC2)cc1 (racemic) [Example 25, dihydrochloride]", "sRAGE binding to S100b (Homo sapiens)", "IC50", "nM", 1370),
    ("CCCCc1nnc(OCC2CN(C)C2)cc1-c1ccc(OCc2ccccc2)cc1 [Example 9, dihydrochloride]", "sRAGE binding to S100b (Homo sapiens)", "IC50", "nM", 2700),
    ("CCCCc1nnc(OC2CCN(C)CC2)cc1-c1ccc(OC2CCCCC2)c(N2CCCS2(=O)=O)c1 [Example 75, dihydrochloride]", "sRAGE binding to S100b (Homo sapiens)", "IC50", "nM", 2190),
    ("CCCCc1nnc(C(=O)NCCN2CCC(O)CC2)cc1-c1ccc(OC2CCCCC2)cc1 [Example 93, dihydrochloride]", "sRAGE binding to S100b (Homo sapiens)", "IC50", "nM", 1690),
]

Data provenance: patent US9045461B2
